The entries below come with measured protein stability index values attached.
B1: SAT2 (parent)
chain: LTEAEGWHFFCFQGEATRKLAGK

Variants of: B1
experimental_details: protein stability index of a GFP-peptide fusion (GPS, HEK-293T) (PSI 1-6); higher = more stable;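 also: lentivirally expressed fusions sorted by FACS into six bins by GFP to DsRed ratio, PSI derived from sequencing read proportions per bin multiplied by bin number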
condition_notes: c terminus: native
Reply with the value as a number alone.

These solved cases illustrate the format of a correct answer.
mutant: W7N
protein stability index: 4.35
--
mutant: A21L
protein stability index: 1.33
--
mutant: R18G
protein stability index: 2.07
--
mutant: F10K
protein stability index: 3.77
--
mutant: W7V
protein stability index: 3.42

Which protein stability index is listed for Q13Y ?
2.66

Also, A21C please.
2.57
